- targetOrTestSystem: Aldehyde dehydrogenase, mitochondrial (Homo sapiens)
- experiment: qHTS for Inhibitors of the Aldehyde Dehydrogenase Family (ALDH2) Primary screen (AID 2061308); further: nearly all actives have a fitted effect of over 55% in size
- setupConditions: ALDH2 enzyme inhibition qHTS, 1536-well; series mostly up to 56 µM
Records with an inconclusive call do not appear. Activity calls are given as the source filed them. The call rests on the fitted dose curve; in most records, active means well fitted inhibition curve with a large enough effect; inconclusive means small, poorly fitted or top-dose-only effect; inactive means flat fitted curve, though single readings scatter. Numbered stars: 1 amine (or outer) side, 2 acyl side, 3 side chain; on linkers, the order of the positions; unused ones are H or OH. Square brackets hold non-standard residues; d marks the D form. Peptide text beside a SMILES is read from it. X10 = O=C(C(CC(O)CO)O[*:1])[*:2]; NMeV = CN[CH](C(=O)O)C(C)C; NMeA = CN[CH](C)C(=O)O; βAla = NCCC(=O)O
readoutLabel: activity change, negative = inhibition

# molecule, activity change, negative = inhibition
measured = [
    ("O=C(COc1ccc2ccccc2c1Br)Nc1cccnc1", "inactive"),
    ("CC(NCc1ccc(OCc2cccc(F)c2)cc1)C(N)=O (stereo not given)", "inactive"),
    ("CC1(C)CC[C@]2(C(=O)O)CC[C@]3(C)C(=CCC4[C@@]5(C)C[C@@H](O)[C@H](O)[C@@](C)(CO)C5[C@H](O)C[C@]43C)[C@@H]2C1 (stereo not given in full)", "inactive"),
    ("CC1c2ccccc2CN1NC(=O)c1ccc(Cl)c(S(N)(=O)=O)c1 (stereo not given)", "inactive"),
    ("CCC(C)C1NC(=O)C2CCCN2C(=O)C(CC(O)CO)OC(=O)CCNC(=O)C(C)N(C)C(=O)C(C(C)C)N(C)C1=O (stereo not given) (cyclo([X10]PI[NMeV][NMeA][βAla]); configuration not given here)", "inactive"),
]

Fill in activity change, negative = inhibition for each of the 7 molecules listed.
1. CC1=C(C)C(=O)OC(C(C)C2C(O)CC3C4C5OC5C5(O)CC(OC6OC(CO)C(O)C(O)C6O)CC(O)C5(C)C4CCC32C)C1 (stereo not given)
2. CCS(=O)(=O)c1cccc(-c2cc(C(=O)NC3CCN(C)CC3)c(C)c3[nH]c4ncc(C)cc4c23)c1
3. COc1cc2c(cc1O)C1(Cc3ccc4c(c3C1O)OCO4)[N+](C)([O-])CC2 (stereo not given)
4. CC[C@]1(O)CC2CN(CCc3c([nH]c4ccccc34)[C@@](C(=O)OC)(c3cc4c(cc3OC)N(C=O)[C@H]3[C@@](O)(C(=O)OC)[C@H](OC(C)=O)[C@]5(CC)C=CCN6CC[C@]43[C@@H]65)C2)C1 (stereo not given in full)
5. COc1cc(O)cc(C)c1C(=O)O[C@H]1[C@@H](O)[C@@H](n2ccc(=O)[nH]c2=O)O[C@@H]1CO
6. C[C@@H]1O[C@@H](O[C@H]2[C@H](Oc3cc(O)c(C(=O)CCc4ccc(O)cc4)c(O)c3)O[C@H](CO)[C@@H](O)[C@@H]2O)[C@H](O)[C@H](O)[C@H]1O
7. CC(C)(O)C1CC=C(C(=O)OC[C@H]2O[C@@H](Oc3cc(C(=O)O)cc(O)c3O)[C@H](O)[C@@H](O)[C@@H]2O)CC1 (stereo not given in full)

[reply]
inactive
inactive
inactive
inactive
inactive
inactive
inactive

====

- experiment: BET inhibitor-based combinations targeting novel dependencies in MECOM-rearranged (r) AML: MV-4-11 cell line (AID 2202233); further: nearly all actives have a fitted effect of over 45% in size
- setupConditions: MV-4-11 AML viability, CellTiter-Glo luminescence, 48 h; series mostly up to 46 µM
Records with an inconclusive call do not appear. The source made the active and inactive calls. The call rests on the fitted dose curve; in most records, active means well fitted inhibition curve with a large enough effect; inconclusive means small, poorly fitted or top-dose-only effect; inactive means no such curve, though single readings can be large or run the other way.
Answer with one of the outcomes active, inactive

Use the examples below as a reference point.
# compound, className
measured = [
    ("Cc1ccc([N+](=O)[O-])cc1S(=O)(=O)N(C)/N=C/c1cnc2ccc(Br)cn12", "active"),
    ("COC(=O)C1=C(C)NC(C)=C(C(=O)OCCN2CCN(C(c3ccccc3)c3ccccc3)CC2)C1c1cccc([N+](=O)[O-])c1 (stereo not given)", "active"),
    ("CC1(C)NC(=O)N(c2ccc([N+](=O)[O-])c(C(F)(F)F)c2)C1=O", "inactive"),
]

[ask] Call for entry CC(C)(C#N)c1cc(Cn2cncn2)cc(C(C)(C)C#N)c1 :
[reply] inactive

[ask] Which result was noted for this compound in the test: N[C@@]1(C(=O)O)CS(=O)(=O)[C@H]2[C@H](C(=O)O)[C@H]21
[reply] inactive
